assay endpoint: melting point

Example entries begin here.
>>> reported_measurement("Cl.N[C@@]1(C(=O)OCc2ccccc2C(F)(F)F)CC[C@H]2[C@H](C(=O)O)[C@H]21")
"> 175 °C (dec.)"
>>> reported_measurement("Cl.N[C@@]1(C(=O)OCc2ccccc2Br)CC[C@H]2[C@H](C(=O)O)[C@H]21")
"190 to 191 °C"
>>> reported_measurement("Cl.N[C@@]1(C(=O)OCc2cc(Cl)ccc2Cl)CC[C@H]2[C@H](C(=O)O)[C@H]21")
"173 to 175 °C"

Consider the record given below.
Ask: State the recorded melting point for this entry: Cc1ccc(C)c(COC(=O)[C@]2(N)CC[C@H]3[C@H](C(=O)O)[C@H]32)c1.Cl
Result: 70 °C (dec.)

* * *

assay endpoint: melting point

Known results for compounds:
>>> reported_measurement("Cl.N[C@@]1(C(=O)OCc2ccccc2F)CC[C@H]2[C@H](C(=O)O)[C@H]21")
"> 220 °C (dec.)"
>>> reported_measurement("Cl.N[C@@]1(C(=O)OCc2cc(F)cc(F)c2)CC[C@H]2[C@H](C(=O)O)[C@H]21")
"98 to 99 °C"
>>> reported_measurement("N[C@@]1(C(=O)OCc2cccc(F)c2)CC[C@H]2[C@H](C(=O)O)[C@H]21")
"225 °C (dec.)"
>>> reported_measurement("Cl.N[C@@]1(C(=O)OCc2ccc(Cl)cc2Cl)CC[C@H]2[C@H](C(=O)O)[C@H]21")
"135 to 137 °C"

Query compound follows.
Ask: Fill in: melting point of COc1ccccc1COC(=O)[C@]1(N)CC[C@H]2[C@H](C(=O)O)[C@H]21 is ___
Result: 195 °C (dec.)
